experiment: Oral bioavailability in rat at 10 mg/kg; type: ADME, organism-based; settings: in vivo
bioavailability for assorted compounds
ATTRIBUTE MEASURED: bioavailability (%)

                            molecule_smiles  attribute_measured  readout_number
0  CCCCn1c(=O)c(C(=O)Nc2nc3ccccc3[nH]2)c(O)c2ccccc21     bioavailability              35
1  O=C(Nc1nc2ccccc2[nH]1)c1c(O)c2cccc3c2n(c1=O)CC3     bioavailability              17

###

test: Half life in rat at 2 mg/kg, iv; assay type: ADME, organism-based; conditions: in vivo
Below: a set of entries, each annotated with reported half-life.
ATTRIBUTE MEASURED: half-life (h)

>>> print(df.to_string())
                            molecule_smiles  unit_label  readout_number
0  O=C(Nc1nc2ccccc2[nH]1)c1c(O)c2cccc3c2n(c1=O)CC3           h             7.7
1  CCCCn1c(=O)c(C(=O)Nc2nc3ccccc3[nH]2)c(O)c2ccccc21           h            18.8

###

Each entry below carries its reported pIC50.
system: Streptococcus pneumoniae; test: Antibacterial activity against Streptococcus pneumoniae ATCC 700904; assay type: functional, organism-based; settings: Streptococcus pneumoniae, ATCC 700904; read-out: IC50
pIC50: −log10 of the molar value.
ATTRIBUTE MEASURED: pIC50

                            molecule_smiles  relational_operator  readout_number
0  O=C(Nc1nc2ccc(Cl)cc2s1)c1c(O)c2ccccc2[nH]c1=O                    <            4.70
1  CCn1c(=O)c(C(=O)Nc2nc3ccccc3[nH]2)c(O)c2ccccc21                    =            5.42
2  O=C(Nc1nc2ccc(Cl)cc2s1)c1c(O)c2cccc3c2n(c1=O)CCC3                    <            4.70
3  O=C(Nc1nc2ccc(Cl)cc2s1)c1c(O)c2cccc3c2n(c1=O)CC3                    =            6.21
4  C=CCn1c(=O)c(C(=O)Nc2nc3ccccc3[nH]2)c(O)c2ccccc21                    <            4.70
5  CCCCn1c(=O)c(C(=O)Nc2nccs2)c(O)c2ccccc21                    =            6.11

###

assay: AUC in rat at 10 mg/kg, po; type: ADME, organism-based; details: in vivo
Below: a set of entries, each annotated with reported AUC.
ATTRIBUTE MEASURED: AUC (ng·h/mL)

In [3]: df
Out[3]:
                            molecule_smiles  unit_label  readout_number
0  CCCCn1c(=O)c(C(=O)Nc2nc3ccccc3[nH]2)c(O)c2ccccc21     ng·h/mL           12400
1  O=C(Nc1nc2ccccc2[nH]1)c1c(O)c2cccc3c2n(c1=O)CC3     ng·h/mL           21400

###

assay: Cmax in rat at 10 mg/kg, po; format: ADME, organism-based; set-up: dose 10 mg/kg, route oral; settings: in vivo
Each record here notes measured Cmax.
ATTRIBUTE MEASURED: Cmax (ng/mL)

>>> print(df.to_string())
                            molecule_smiles  unit_label  readout_number
0  O=C(Nc1nc2ccccc2[nH]1)c1c(O)c2cccc3c2n(c1=O)CC3       ng/mL            2700
1  CCCCn1c(=O)c(C(=O)Nc2nc3ccccc3[nH]2)c(O)c2ccccc21       ng/mL            1200

###

We begin with a simple list: items and their reported half-life.
assay: Half life in rat at 10 mg/kg, po; assay type: ADME, organism-based; details: in vivo
ATTRIBUTE MEASURED: half-life

In [3]: df
Out[3]:
                            molecule_smiles  attribute_measured   result
0  O=C(Nc1nc2ccccc2[nH]1)c1c(O)c2cccc3c2n(c1=O)CC3           half-life  432 min
1  CCCCn1c(=O)c(C(=O)Nc2nc3ccccc3[nH]2)c(O)c2ccccc21           half-life  240 min

###

assay: Protein binding in rat plasma; type: ADME, cell-free; conditions: read-out: PPB (converted)
ATTRIBUTE MEASURED: fraction unbound

>>> print(df.to_string())
                            molecule_smiles  readout_number
0  O=C(Nc1nc2ccc(Cl)cc2s1)c1c(O)c2cccc3c2n(c1=O)CC3           0.016

###

system: Streptococcus pneumoniae; assay: Antibacterial activity against Streptococcus pneumoniae ATCC 700904; assay type: functional, organism-based; settings: Streptococcus pneumoniae, ATCC 700904; read-out: IC50
pIC50: −log10 of the molar value.
ATTRIBUTE MEASURED: pIC50

                             molecule_smiles  relational_operator  readout_number
 0  Cc1nnc(NC(=O)c2c(O)c3cccc4c3n(c2=O)CC4)s1                    =            5.77
 1  CCCCn1c(=O)c(C(=O)Nc2nc3ccccc3[nH]2)c(O)c2ccccc21                    =            6.10
 2  Cn1c(=O)c(C(=O)Nc2nc3ccccc3[nH]2)c(O)c2ccccc21                    <            4.70
 3  C=CCn1c(=O)c(C(=O)Nc2nc3ccc(Cl)cc3s2)c(O)c2ccccc21                    =            5.51
 4  CCn1c(=O)c(C(=O)Nc2nc3ccc(Cl)cc3s2)c(O)c2ccccc21                    <            4.70
 5  O=C(Nc1nc2ccccc2[nH]1)c1c(O)c2cccc3c2n(c1=O)CCC3                    =            5.19
 6    O=C(Nc1nccs1)c1c(O)c2cccc3c2n(c1=O)CC3                    <            4.70
 7  C=CCn1c(=O)c(C(=O)Nc2nccs2)c(O)c2ccccc21                    =            5.38
 8  CCCCn1c(=O)c(C(=O)Nc2nc3ccc(Cl)cc3s2)c(O)c2ccccc21                    =            6.42
 9     Cn1c(=O)c(C(=O)Nc2nccs2)c(O)c2ccccc21                    <            4.70
10  O=C(Nc1nc2ccccc2s1)c1c(O)c2cccc3c2n(c1=O)CC3                    =            5.10

###

assay: Protein binding in human plasma; type: ADME, cell-free; conditions: read-out: PPB (converted)
ATTRIBUTE MEASURED: fraction unbound

>>> df
                            molecule_smiles  attribute_measured  readout_number
0  O=C(Nc1nc2ccc(Cl)cc2s1)c1c(O)c2cccc3c2n(c1=O)CC3    fraction unbound           0.006

###

assay: Solubility of compound at 1 mg/ml incubated for 24 hrs by LC/MS analysis; format: physicochemical
ATTRIBUTE MEASURED: solubility at 24 h (µg/mL)

>>> print(df.to_string())
                            molecule_smiles  unit_label  readout_number
0  O=C(Nc1nc2ccc(Cl)cc2s1)c1c(O)c2cccc3c2n(c1=O)CC3       µg/mL           0.195

###

tested on: Streptococcus pneumoniae; experiment: Antibacterial activity against Streptococcus pneumoniae ATCC 700904; type: functional, organism-based; conditions: Streptococcus pneumoniae, ATCC 700904; read-out: IC50
Consider the following compounds and their measured IC50 readings.
ATTRIBUTE MEASURED: IC50

MOLECULE SMILES	ATTRIBUTE MEASURED	RESULT
O=C(Nc1nccs1)c1c(O)c2cccc3c2n(c1=O)CCC3	IC50	> 20 µM
CCn1c(=O)c(C(=O)Nc2nccs2)c(O)c2ccccc21	IC50	6.2 µM
O=C(Nc1nc2ccccc2[nH]1)c1c(O)c2cccc3c2n(c1=O)CC3	IC50	3.3 µM
CN[C@H](CC(C)C)C(=O)N[C@H]1C(=O)N[C@@H](CC(N)=O)C(=O)N[C@H]2C(=O)N[C@H]3C(=O)N[C@H](C(=O)N[C@H](C(=O)O)c4cc(O)cc(O)c4-c4cc3ccc4O)[C@H](O)c3ccc(c(Cl)c3)Oc3cc2cc(c3O[C@@H]2O[C@H](CO)[C@@H](O)[C@H](O)[C@H]2O[C@H]2C[C@](C)(N)[C@H](O)[C@H](C)O2)Oc2ccc(cc2Cl)[C@H]1O	IC50	0.12 to 0.19 µM
